Record: Ki reported on Procathepsin L (Homo sapiens).
Sequence (P07711 whole entry): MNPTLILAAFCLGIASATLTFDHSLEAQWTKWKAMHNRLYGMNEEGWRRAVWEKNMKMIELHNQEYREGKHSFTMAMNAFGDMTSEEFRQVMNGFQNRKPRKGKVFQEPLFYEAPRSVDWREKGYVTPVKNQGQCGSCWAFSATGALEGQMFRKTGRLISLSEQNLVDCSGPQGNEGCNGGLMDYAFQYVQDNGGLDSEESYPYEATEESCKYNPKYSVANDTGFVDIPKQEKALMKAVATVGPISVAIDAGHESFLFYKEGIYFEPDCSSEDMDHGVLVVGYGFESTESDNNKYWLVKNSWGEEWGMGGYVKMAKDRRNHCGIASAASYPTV
Assay endpoint: Ki (nM)

A: C[C@@H](/C=C/[N+](=O)[O-])NC(=O)[C@H](Cc1ccc([N+](=O)[O-])cc1)NC(=O)OCc1ccccc1
B: Cc1ccc(S(=O)(=O)/C=C/C(=O)[C@H](CC(C)C)NC(=O)[C@H](CC(C)C)NC(=O)OCc2ccccc2)cc1
// query Param metric = Ki; output whichever of A , B has the minimum value. State your choice using its label.
// result A

###

# Assay overview: Lipophilicity, logP of compound
# Condition description: octanol/water
Assay endpoint: logP

C[C@@H](/C=C/[N+](=O)[O-])NC(=O)[C@H](Cc1c[nH]c2ccccc12)NC(=O)OCc1ccccc1 :: 1.61
C[C@@H](/C=C/[N+](=O)[O-])NC(=O)[C@H](Cc1ccc([N+](=O)[O-])cc1)NC(=O)OCc1ccccc1 :: 1.85
